From: PubChem BioAssay

Biological target: Caspase-3 (Homo sapiens)
Experiment: caspase-3 protease inhibitors, confirmation, selectivity assay for SENP inhibitor project, biochemical, single concentration (AID 488918);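 further: plate controls were enzyme with DMSO for no effect and wells without caspase-3 for full effect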
Conditions: purified caspase-3, Z-DEVD-aminoluciferin luminescence, 60 min; at 12.5 µM; stronger effect = higher value
This is one part of the list.
Label N if inhibition falls below 60%; label Y in every other case.

# check: inhibition of CN1C(=O)/C(=C\c2cc(Br)cs2)c2ccccc21 is greater than or equal to 60%
N

Could you please find out whether CC(C)n1cnc2c(NCc3ccccc3)cc(OCC3CCN(C)CC3)cc21 has inhibition that meets 60% or exceeds it?
N

Determine whether this molecule has inhibition no lower than 60%: O=C(Nc1ccn(Cc2ccccc2)n1)c1n[nH]c([N+](=O)[O-])c1Cl
Y

Is the recorded value of inhibition equal to or greater than 60% for this molecule? O=C(Nc1ccccc1F)c1ccc2c(c1)OCO2
Y

###

Experiment: inhibition of Brca1/Bard1 split-luciferase complementation, confirmation, counter-screen for Mdm2/MdmX interaction inhibitor project, luminescence, single concentration (AID 504668)
Conditions: Brca1/Bard1 bimolecular luciferase complementation counterscreen, at 8 µM, stronger effect = higher value
Please go through the items and note down their inhibition.
Answer in %, number only, no unit symbol.

Given the compound CCC(=O)Nc1cccc(C(=O)/C=C/c2ccccc2)c1 , what is its reported inhibition?
34.4

Any idea what inhibition was measured for Cn1c(=O)c2c(nc(Oc3ccc4ccccc4c3)n2C)n(C)c1=O ?
33.6

Recorded inhibition for CC#CC[N+](C)(C)CCCCCCCCCCCC , please?
29.6

Recorded inhibition for CCCC(=O)NC(c1ccco1)c1cc(Cl)c2cccnc2c1O (stereo unspecified) , please?
23.3

I have this compound here, CN(CC(=O)Nc1ccccc1Cl)C(=O)COC(=O)c1nc(Cl)c(Cl)c(Cl)c1Cl , and I need its recorded inhibition.
30.8

So what's the measured inhibition for this one? Cc1ccc2nc(C(F)(F)F)c(C#N)c(N)c2c1
25.7

So what's the measured inhibition for this one? C=CCc1cccc(/C=N/NC(=O)CNc2ccccc2OC)c1O
28.3

For Cn1nnnc1Sc1ncnc2scc(-c3ccccc3Br)c12 , what is its reported inhibition?
25

Would you mind telling me what inhibition value was observed for Oc1ccccc1C1CC(c2cccs2)=NC(c2ccc(Cl)cc2)N1 (stereo unspecified) ?
28.5

Item under review: C=CCn1c(COc2ccccc2)nnc1SC(C)C(=O)N/N=C/c1cc(Cl)ccc1O (stereo unspecified) . Reported inhibition?
30.6

Which measured inhibition value corresponds to Oc1c(CN2CCN(c3ccc(F)cc3)CC2)cc(Cl)c2cccnc12 ?
25.7

So what does the record say about inhibition for O=C(Nc1ccc(Br)c(C(F)(F)F)c1)c1ccc(C(F)(F)F)cc1 ?
28.7

Which inhibition reading was recorded for the compound C=CC[n+]1c(/C=C2\C=Cc3cc(C)ccc3N2CC)ccc2ccccc21 ?
28.5

Look up inhibition for this compound: CCCCCc1ccc(OCCCC[n+]2ccccc2)c(CCCCC)c1
24.6

Look up inhibition for this compound: CC(C)(C)c1ccc(-c2nnc3sc(-c4ccccn4)nn23)cc1
30.2

Return reported inhibition; argument: Cc1ccc(-c2oc3ccccc3c(=O)c2O)cc1
24.8

Dear colleague, I am looking for the recorded inhibition of the following compound: CN(C)CCCNC(=O)c1ccc(-c2nc(-c3ccc(Cl)cc3)cs2)cc1
28.3

# lookup: inhibition of O=C(Nc1ccc(Cl)cc1)Nc1csc([N+](=O)[O-])c1
30.6

# query: inhibition of entry CC(C)(C)C(=O)NC(=S)NNC(=O)c1ccc(-c2ccccc2)cc1
28.9

Entry Cc1ccc(S(=O)(=O)Nc2cc(-c3nn(C)c(=O)c4ccccc34)ccc2N2CCOCC2)cc1 has what inhibition?
29.6

Suppose we examine the compound Cc1ccccc1-c1cc(C(=O)Nc2sc(C(=O)OC(C)C)c(C)c2C#N)c2ccccc2n1 ; what inhibition value has been reported?
23.7

Requested read-out: inhibition. Entry: CN(C)C=Nc1ncc2c([nH]c3ccccc32)c1C#N
23

Entry C=CCn1c(CNc2ccc(C)cc2)nnc1SCC(=O)N/N=C/c1ccc(O)cc1O has what inhibition?
35.6

Param item = CC(C)(C)c1cc(Cl)c(O)c(NC(=S)NC(=O)c2cccnc2)c1 ; retrieve measured inhibition.
35.2

# input compound: Cc1ccc(NC(=O)Cn2nnc(C(=O)NCCc3ccccc3)c2N)cc1Cl ; wanted: its inhibition
29.3

May I ask what inhibition has been recorded for O=C(CCl)N(C/C=C/c1ccccc1)c1ccc2c(c1)OCCO2 ?
26.4

# get_value(readout='inhibition', item= CCCOc1ccc(C(=O)C(CN2CCOCC2)c2ccccc2)cc1 (stereo unspecified) )
25.6

Which inhibition is reported for this compound? CN(CC1CCCO1)S(=O)(=O)c1ccc(C(=O)Nc2nc(-c3ccccn3)cs2)cc1 (stereo unspecified)
27.4

Recorded inhibition for COC(=O)[C@@]1(Cc2ccccc2)[C@H]2C(=O)N(Cc3ccccc3)C(=O)[C@H]2[C@H]2CN=C(SCc3ccccc3)N21 , please?
34.6

Record request: inhibition value, item O=C(CCCN1C(=O)/C(=C/c2ccccc2)SC1=S)Nc1ccccc1O
29.9

I'd like to know its inhibition. The compound in question is O=C(CCl)Nc1cn(-c2ccccc2)nc1-c1ccccc1
33.7

###

Experiment: inhibitors of PAF-induced NFkB signaling in CF airway cells, dose response, cell-based, uHTS hits, panel, cytotoxicity readout (AID 624344)
Conditions: CF bronchial epithelial cells, PAF-induced NFkB reporter inhibition, with PAF, run 1; at 79 µM (top of the series) unless noted
Answer each item with its documented inhibition.
State the answer as a number, implicitly in %.

For the molecule Clc1ccc(Cn2ncc3c(N4CCN(c5ccccc5)CC4)ncnc32)cc1 , what inhibition is on record?
109

Please report the recorded inhibition for O=C(COC(=O)c1ccc2[nH]c3c(c2c1)CCCC3)Nc1ccccc1Cl .
65.7

Dear colleague, I am looking for the recorded inhibition of the following molecule: COc1ccc([C@]2(C(C)C)ON(c3ccccc3C(F)(F)F)C2=O)cc1
103

Request the reported inhibition associated with CC(C)c1ccccc1NC(=O)COC(=O)c1c2c(nc3ccccc13)CCN(Cc1ccccc1)C2
76.4

Record request: inhibition value, item Clc1ccccc1C1=Nn2c(nnc2-c2ccncc2)SC1
109

What value of measured inhibition is listed for CN(C)c1ccc(Nc2ncnc3ccc(Br)cc23)cc1 ?
104

Item CC(C)[C@H](CO)Nc1nc(NCc2ccc(S(N)(=O)=O)cc2)c2ncn(C(C)C)c2n1 has what recorded inhibition?
107

Look up inhibition for this molecule: COc1cccc(NC(=O)CN(C)CC(=O)Nc2ccc(C)c([N+](=O)[O-])c2)c1
80.7

Give its inhibition value. Item: COc1ccc(NC(=O)c2cc3c(-c4ccc(OC)c(OC)c4)nn(C)c3s2)cc1OC
107

Tell me the measured inhibition of CCn1c2ccccc2c2cc(/C=N/O)ccc21 , please.
114

###

Assay: inhibition of Brca1/Bard1 split-luciferase complementation, confirmation, counter-screen for Mdm2/MdmX interaction inhibitor project, luminescence, single concentration (AID 504668)
Conditions: Brca1/Bard1 bimolecular luciferase complementation counterscreen, at 8 µM, stronger effect = higher value
The source made the active and inactive calls. How the calls were made is not given here.
Kindly supply the reported inhibition values for the records listed here.

Can you share its inhibition? I mean this compound: COc1cccc(/C=N/NC(=O)c2c(C)nc3ccc(Cl)cn23)c1O
34.5% (active)

For COc1ccc2[nH]c3c(c2c1)CC(C)NC3=O (configuration not stated) , what is its reported inhibition?
33.6% (active)

What value of measured inhibition is listed for Cc1nn2c(NCc3ccccn3)cc(C(C)C)nc2c1-c1ccccc1 ?
28.7% (active)

Recorded inhibition of COc1ccccc1NCC(=O)N/N=C/c1c(O)ccc2ccccc12 , please.
24.6% (active)

So what's the measured inhibition for this one? CCCN(CCC)CCNC(=O)C1CCN(Cc2nc(-c3ccc(Cl)cc3)oc2C)CC1
30.3% (active)

Any idea what its inhibition is? The compound is Cc1ccc(/C=C/C(O)=C2/C(=O)N(C)C3(C)CC2c2ccccc2O3)cc1 (configuration not stated)
30.1% (active)

State the recorded inhibition for this entry: O=C(CCl)c1ccc2c(c1)CCN2C(=O)C1CC1
27% (active)

If you can, please state the reported inhibition value of COc1ccc(/C=c2/sc3n(c2=O)C(c2ccccc2OC)C2=C(N=3)c3ccccc3CC2)cc1O (configuration not stated) .
29.6% (active)

Would you kindly share the measured inhibition for Cc1ccccc1OCC(O)Cn1c(=N)n(Cc2ccccc2)c2ccccc21 (configuration not stated) ?
28.9% (active)

// inhibition lookup, key: COc1ccc(/C=C2/SC(=S)N(CCCC(=O)N3CCN(C)CC3)C2=O)cc1
31.7% (active)

I have this compound here, Oc1c(C(c2ccc(Cl)cc2)N2CCCC2)cc(Cl)c2cccnc12 (configuration not stated) , and I need its recorded inhibition.
32.9% (active)

Quick one: inhibition for Cc1cccc(Cn2nc(C(C)(C)C)cc2C(=O)Nc2ccc(F)cc2)c1 ?
31.2% (active)
